- target.under.test: Bile acid receptor (Homo sapiens) (UniProt Q96RI1)
- Sequence (Q96RI1 whole entry, looked up): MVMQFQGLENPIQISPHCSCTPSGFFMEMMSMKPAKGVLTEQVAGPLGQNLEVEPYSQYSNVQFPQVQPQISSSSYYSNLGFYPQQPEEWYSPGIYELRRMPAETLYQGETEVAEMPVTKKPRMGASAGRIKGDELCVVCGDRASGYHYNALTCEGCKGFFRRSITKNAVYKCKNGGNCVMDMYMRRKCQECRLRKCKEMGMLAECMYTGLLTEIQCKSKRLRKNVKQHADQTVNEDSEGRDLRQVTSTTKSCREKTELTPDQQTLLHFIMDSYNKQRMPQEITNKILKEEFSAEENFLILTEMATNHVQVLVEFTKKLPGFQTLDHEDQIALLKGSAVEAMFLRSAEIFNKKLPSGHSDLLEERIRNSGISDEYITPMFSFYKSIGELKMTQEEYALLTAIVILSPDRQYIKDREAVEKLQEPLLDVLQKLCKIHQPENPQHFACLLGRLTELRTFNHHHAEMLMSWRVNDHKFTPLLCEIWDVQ
- assay: ATG_IR1_CIS: Attagene CIS-FACTORIAL HepG2 Assay for human Nuclear Receptor Subfamily 1 Group H Member 4 (NR1H4), IR1 submotif (AID 2282946)
- condition.context: IR1 reporter transcription, actives raise or lower the signal
Calls of active or inactive are those of the source. The calls were made as follows: active = hit-call score of the fitted dose curve at least 0.9, where 1 is the maximum; inactive = score below 0.9.
measure.name: outcome

Guide cases for outcome, answers given:
Cc1c(C)c2c(c(C)c1O)CCC(C)(COc1ccc(CC3SC(=O)NC3=O)cc1)O2 (stereo not drawn) :: inactive
Nc1nc(Cl)nc2c1ncn2[C@H]1C[C@H](O)[C@@H](CO)O1 :: inactive
CC(=O)OC1CC(C)OC(C)O1 (stereo not drawn) :: inactive
O=C(NS(=O)(=O)/C=C/c1cccs1)c1ccc(F)cc1Br :: inactive
O=C(O)CN(CC(=O)O)CC(=O)O :: inactive
C=CCc1ccc(OC)c(OC)c1 :: inactive
CSc1ccc(Oc2ccc(S(N)(=O)=O)cc2CN(C)C)cc1C :: inactive

API: the following record is the query input.
Record NC(=Nc1ccccc1)Nc1ccccc1 / Bile acid receptor (Homo sapiens) (UniProt Q96RI1), outcome recorded as inactive
